Biological target: human MC4R receptor (human, UniProt P32245 1-332)
Sequence (P32245 whole entry): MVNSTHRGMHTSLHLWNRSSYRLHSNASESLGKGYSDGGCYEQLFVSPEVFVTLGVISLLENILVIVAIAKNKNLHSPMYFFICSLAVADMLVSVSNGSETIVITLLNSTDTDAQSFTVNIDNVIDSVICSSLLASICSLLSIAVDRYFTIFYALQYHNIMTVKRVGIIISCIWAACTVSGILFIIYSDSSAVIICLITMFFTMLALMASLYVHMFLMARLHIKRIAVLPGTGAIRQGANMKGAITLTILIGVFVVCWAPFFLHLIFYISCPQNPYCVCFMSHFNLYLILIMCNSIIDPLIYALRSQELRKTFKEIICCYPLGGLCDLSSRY
Experiment: cell-based or functional assay
Positions of bridges follow the written chain, without caps; N, C: chain ends. Non-standard residues stand in square brackets, D forms with d. dPhe(4-Br) = N[C@H](Cc1ccc(Br)cc1)C(=O)O; R2 = not defined here
Readings of MC4R selectivity vs MC3R for the listed binders

[[record]]
binder = "R2-RC[dA]R[dPhe(4-Br)]R[dW]C-NH2 (disulfide 2-8; reading uncertain; also: printed as N-term. Mod. R2; Arg-cyclo(Cys-D-Ala-Arg-D-Phe(4-Br)-Arg-D-Trp-Cys)-NH2) [CTX-1226]"
observed_value = 3.21


Indicate the recorded MC4R selectivity vs MC3R value for this binder: Ac-RC[dA]P[dPhe(4-Br)]RWC-NH2 (disulfide 2-8; SMILES CC(=O)N[C@@H](CCCNC(=N)N)C(=O)N[C@H]1CSSC[C@@H](C(N)=O)NC(=O)[C@H](Cc2c[nH]c3ccccc23)NC(=O)[C@H](CCCNC(=N)N)NC(=O)[C@@H](Cc2ccc(Br)cc2)NC(=O)[C@@H]2CCCN2C(=O)[C@@H](C)NC1=O) [CTX-2204]
0.19

Value source: patent US20240391954A1
